Test system: FMC63
Sequence (as listed by the source): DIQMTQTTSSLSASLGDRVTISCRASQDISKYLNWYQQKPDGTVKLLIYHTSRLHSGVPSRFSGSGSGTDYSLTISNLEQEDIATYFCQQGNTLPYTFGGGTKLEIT
Sequence (as listed by the source): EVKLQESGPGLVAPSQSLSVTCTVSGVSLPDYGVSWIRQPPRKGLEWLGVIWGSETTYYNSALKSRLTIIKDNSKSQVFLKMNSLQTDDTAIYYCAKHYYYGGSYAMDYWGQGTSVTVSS
Experiment: CD19 variant binding to anti-CD19 antibody FMC63 (score)
Details: Table 1B, CD19 triple mutants
Measured FMC63 Binding Score accompanies every entry in the list below.

Molecule	FMC63 Binding Score
E224G/G226D/L228V: CD19 variant (protein) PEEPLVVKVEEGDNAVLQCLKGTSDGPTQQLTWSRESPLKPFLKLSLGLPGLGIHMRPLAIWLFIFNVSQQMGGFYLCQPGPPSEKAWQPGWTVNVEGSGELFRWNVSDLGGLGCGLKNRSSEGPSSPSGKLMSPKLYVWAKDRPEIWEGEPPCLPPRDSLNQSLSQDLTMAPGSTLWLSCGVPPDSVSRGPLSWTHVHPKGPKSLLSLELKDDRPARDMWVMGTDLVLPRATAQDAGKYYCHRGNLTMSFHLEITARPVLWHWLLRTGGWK	12.
W62T/F64V/F66P: CD19 variant (protein) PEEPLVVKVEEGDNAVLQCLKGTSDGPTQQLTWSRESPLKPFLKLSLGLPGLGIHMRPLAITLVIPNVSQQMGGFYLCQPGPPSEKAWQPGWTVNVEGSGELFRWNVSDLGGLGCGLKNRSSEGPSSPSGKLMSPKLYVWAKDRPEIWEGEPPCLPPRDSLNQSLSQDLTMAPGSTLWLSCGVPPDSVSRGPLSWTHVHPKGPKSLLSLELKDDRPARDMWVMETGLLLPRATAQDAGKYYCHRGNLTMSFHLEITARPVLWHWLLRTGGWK	16.6
W62S/F64V/F66A: CD19 variant (protein) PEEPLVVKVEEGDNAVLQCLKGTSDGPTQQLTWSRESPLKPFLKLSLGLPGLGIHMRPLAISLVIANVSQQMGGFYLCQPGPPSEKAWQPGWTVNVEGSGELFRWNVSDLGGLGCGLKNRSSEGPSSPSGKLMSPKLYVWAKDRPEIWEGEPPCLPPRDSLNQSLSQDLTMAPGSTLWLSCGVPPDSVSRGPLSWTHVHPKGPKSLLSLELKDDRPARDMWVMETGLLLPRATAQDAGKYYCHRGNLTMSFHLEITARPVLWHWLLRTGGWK	13.5
W62D/F64V/F66M: CD19 variant (protein) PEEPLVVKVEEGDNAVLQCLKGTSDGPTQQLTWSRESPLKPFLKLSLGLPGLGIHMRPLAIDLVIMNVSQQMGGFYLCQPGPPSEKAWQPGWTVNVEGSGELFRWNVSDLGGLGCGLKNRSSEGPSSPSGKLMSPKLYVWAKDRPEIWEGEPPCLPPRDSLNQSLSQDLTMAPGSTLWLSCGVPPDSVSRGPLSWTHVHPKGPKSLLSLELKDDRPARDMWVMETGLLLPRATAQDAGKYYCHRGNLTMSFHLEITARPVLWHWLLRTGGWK	16.
